Test: Absorption maximum wavelength and absorption coefficient of colored composition (visible-light spectrophotometer)
Assay type: physicochemical
Design: unit not given here
Conditions: n-hexane solution; calculated by Lambert-Beer law
readout name: Absorption Coefficient (ε)

Field request: Absorption Coefficient (ε) | item: CCCCCCN(CCCCCC)c1ccc(C=C2C(=O)ON=C2C(C)(C)C)c(C)c1
4.10 × 10^4

Suppose we examine the compound CCCCOC(=O)CN(CC(=O)OCCCC)c1ccc(C=C2C(=O)ON=C2C(C)(C)C)cc1 ; what Absorption Coefficient (ε) value has been reported?
3.80 × 10^4

Can you look up the measured Absorption Coefficient (ε) of CCCCCCCCCCCCN(CCCCCCCCCCCC)c1ccc(C=CC=C2C(=O)ON=C2C(C)(C)C)c(C)c1 for me?
5.10 × 10^4

Hello, the source for this data is patent US9482923B2, in case you need it.
